Data origin: patent US20190315854A1

For each entry below, report its koff value.
Target: T1, sIL-6R (soluble IL-6 receptor; SBH Sciences) (human, UniProt P08887 20-365)
T1 construct: also called human IL-6R
T1 sequence: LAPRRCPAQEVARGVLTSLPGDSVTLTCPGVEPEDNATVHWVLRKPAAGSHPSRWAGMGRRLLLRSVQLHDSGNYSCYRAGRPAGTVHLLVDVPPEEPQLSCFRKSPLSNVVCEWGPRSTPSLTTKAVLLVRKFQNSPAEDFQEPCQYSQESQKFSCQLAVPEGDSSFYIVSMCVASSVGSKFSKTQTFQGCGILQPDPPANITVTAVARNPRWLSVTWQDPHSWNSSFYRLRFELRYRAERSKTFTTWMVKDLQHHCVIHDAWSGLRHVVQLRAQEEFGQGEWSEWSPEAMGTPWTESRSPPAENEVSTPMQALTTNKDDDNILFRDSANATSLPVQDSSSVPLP
Experiment: SPR (BIAcore 3000), antibody on chip, sIL-6R analyte, 25 C
One number for each entry, in s⁻¹.

Known koff results, listed for orientation:
binder	koff (s⁻¹)
15# (antibody, human IgG1, kappa, V domains shown, also called Sample # 15) VH: QVQLQESGPGLVRPSQTLSLTCTVSGYSITSDHAWSWVRQPPGRGLEWIGFISYSGITTYNPSLKSRVTMLRDTSKNQFSLRLSSVTAADTAVYYCARCLARITAMDYWGQGSLVTVSS VL: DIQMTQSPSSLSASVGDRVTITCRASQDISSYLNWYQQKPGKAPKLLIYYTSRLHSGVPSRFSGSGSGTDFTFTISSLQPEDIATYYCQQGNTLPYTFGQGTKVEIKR	4.49e-05
16# (antibody, human IgG1, kappa, V domains shown, also called Sample # 16) VH: QVQLQESGPGLVRPSQTLSLTCTVSGYSITSDHAWSWVRQPPGRGLEWIGFISYSGITTYNPSLKSRVTMLRDTSKNQFSLRLSSVTAADTAVYYCARSLARITAMDYWGQGSLVTVSS VL: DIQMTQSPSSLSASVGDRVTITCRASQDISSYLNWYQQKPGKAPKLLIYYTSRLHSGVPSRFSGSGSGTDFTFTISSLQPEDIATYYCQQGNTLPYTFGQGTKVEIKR	4.04e-05
Tocilizumab (antibody, human IgG1, kappa, V domains shown, also called 25; 25(control)) VH: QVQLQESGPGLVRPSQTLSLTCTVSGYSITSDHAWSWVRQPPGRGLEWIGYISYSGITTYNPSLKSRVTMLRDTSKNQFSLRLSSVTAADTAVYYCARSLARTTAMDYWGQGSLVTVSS VL: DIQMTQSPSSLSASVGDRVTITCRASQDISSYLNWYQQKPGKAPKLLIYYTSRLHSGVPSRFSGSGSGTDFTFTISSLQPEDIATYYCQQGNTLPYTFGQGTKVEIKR	0.000252
30# (antibody, human IgG1, kappa, V domains shown, also called Sample # 30) VH: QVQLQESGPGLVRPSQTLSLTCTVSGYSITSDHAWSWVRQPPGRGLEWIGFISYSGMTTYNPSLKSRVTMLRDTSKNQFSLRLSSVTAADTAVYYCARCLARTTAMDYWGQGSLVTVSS VL: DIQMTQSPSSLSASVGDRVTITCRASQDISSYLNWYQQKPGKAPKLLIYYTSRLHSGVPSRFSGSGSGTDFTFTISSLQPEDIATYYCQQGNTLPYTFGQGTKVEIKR	7.03e-05

Challenge: Consider the binder shown here: 26# (antibody, human IgG1, kappa, V domains shown, also called Sample # 26) VH: QVQLQESGPGLVRPSQTLSLTCTVSGYSITSDHAWSWVRQPPGRGLEWIGYISYSGMTTYNPSLKSRVTMLRDTSKNQFSLRLSSVTAADTAVYYCARSLARTTAMDYWGQGSLVTVSS VL: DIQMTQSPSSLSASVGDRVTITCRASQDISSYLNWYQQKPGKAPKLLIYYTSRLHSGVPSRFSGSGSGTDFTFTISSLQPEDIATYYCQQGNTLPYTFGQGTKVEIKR What is its recorded koff?
Response given: 0.000102
